The following molecules are shown together with reported EC50 values.
# Tested on: Herpes simplex type 1 F strain (HSV-1)
# method-summary: microbe, parasite or virus in culture
# Format: cell-based, Herpes Simplex Virus type 1
# condition-info: Human alphaherpesvirus 1, Vero, 48 h, read-out: EC50 HSV-1
readout: EC50 (µM)

{"smiles-representation": "COc1ccc(-c2oc3c(OC)c(OC)c(OC)c(O)c3c(=O)c2OC)cc1O", "readout": "EC50", "value": 6.8}
{"smiles-representation": "COc1ccc(-c2oc3cc(OC)c(OC)c(O)c3c(=O)c2OC)cc1OC", "readout": "EC50", "value": 5.9}

* * *

The following compounds are shown together with reported CC50 values.
# method-summary: in vitro
# condition-info: human (HepG2.2.15); African green monkey (Vero)

{"smiles-representation": "COc1ccc(-c2oc3cc(OC)c(OC)c(O)c3c(=O)c2OC)cc1OC", "CC50": "> 100 µM"}
{"smiles-representation": "COc1ccc(-c2oc3c(OC)c(OC)c(OC)c(O)c3c(=O)c2OC)cc1O", "CC50": "> 100 µM"}
